Test system: FT3469 (normal neural stem cell line)
Experimental Protocol: surviving fraction (nuclei count normalised to DMSO); higher = more cells surviving (less toxic)
Setup Conditions: 1000 nM; exposure time: 72 h
Counter-ions that a name gives are not always drawn.
Please enter fulfilled where surviving fraction is greater than or equal to 0.5, and not fulfilled where it is lower.

Data request: Record CN1[C@@H]2CC[C@H]1CC(OC(=O)c1c[nH]c3ccccc13)C2 (some centres not stated) [3-Tropanyl-indole-3-carboxylate hydrochloride] ; criterion: surviving fraction no lower than 0.5. Met?
Data returned: fulfilled

Data request: # iterate: COc1cc2c(c(OC)c1OC)-c1ccc(OC)c(=O)cc1[C@@H](NC(C)=O)CC2
Data returned: not fulfilled

Data request: # iterate: CC(C)C[C@H](NC(=O)[C@H](CCc1ccccc1)NC(=O)CN1CCOCC1)C(=O)N[C@@H](Cc1ccccc1)C(=O)N[C@@H](CC(C)C)C(=O)[C@@]1(C)CO1
Data returned: not fulfilled

Data request: # iterate: COc1cc2nc(N3CCN(C(=O)c4ccco4)CC3)nc(N)c2cc1OC [Prazosin hydrochloride]
Data returned: fulfilled

Data request: # iterate: COc1cc2c[n+](C)c3c4cc5c(cc4ccc3c2cc1OC)OCO5 [Nitidine chloride]
Data returned: fulfilled

Attention now turns to another entry.
Data request: Record CC[N+](CC)(CC)CCOc1ccc(/C=C/c2ccccc2)cc1 ; criterion: surviving fraction no lower than 0.5. Met?
Data returned: fulfilled

----------
System: E57 (patient-derived glioblastoma stem cells of mesenchymal subtype)
Experimental Protocol: phenotypic distance (Euclidean, principal components) from DMSO controls (arbitrary units); higher = stronger morphological change
Setup Conditions: 333.3 nM; exposure time: 72 h
Structures can show the parent of a compound that is named as a salt.
Parameter: phenotypic distance. Scope: all listed entries.

Completed entries (count: 6):
Data request: Which phenotypic distance value is on record for C[C@H](NC(=O)[C@@H](O)c1cc(F)cc(F)c1)C(=O)N[C@@H]1C(=O)N(C)c2ccccc2-c2ccccc21 ?
Data returned: 1.28

Data request: # iterate: Oc1ccc(OCc2ccccc2)cc1
Data returned: 0.673

Data request: # iterate: CCOC(=O)C1=C(C)NC(C)=C(C(=O)OCC)C1c1c(F)c(F)c(F)c(F)c1F
Data returned: 1.46

Data request: # iterate: C[C@H](Cc1cc2c(c(C(N)=O)c1)N(CCCO)CC2)NCCOc1ccccc1OCC(F)(F)F
Data returned: 0.512

Data request: # iterate: Cc1cc(CN2CCN(c3c(Br)cnc4nc(-c5ccc(N6CCN(C)CC6)cc5)[nH]c34)CC2)no1
Data returned: 5.64

Data request: # iterate: CC[C@]1(O)C[C@@H]2CN(CCc3c([nH]c4ccccc34)[C@@](C(=O)OC)(c3cc4c(cc3OC)N(C)[C@H]3[C@@](O)(C(=O)OC)[C@H](OC(C)=O)[C@]5(CC)C=CCN6CC[C@]43[C@@H]65)C2)C1 [Vinblastine sulfate]
Data returned: 5.55

More entries:
Data request: Which phenotypic distance value is on record for Cc1c(-c2ccc(-c3ccccc3F)cc2)nc2ccc(F)cc2c1C(=O)O [Brequinar sodium salt hydrate] ?
Data returned: 5.23

Data request: # iterate: C=C[C@H]1CN2CC[C@H]1C[C@@H]2[C@@H](O)c1ccnc2ccc(OC)cc12 [Quinidine hydrochloride monohydrate]
Data returned: 0.376

Data request: # iterate: Cn1ncnc1[C@H]1c2n[nH]c(=O)c3cc(F)cc(c23)N[C@@H]1c1ccc(F)cc1
Data returned: 3.02

Data request: # iterate: CSc1ccc2c(c1)N(CCC1CCCCN1C)c1ccccc1S2 (stereo not given) [Thioridazine hydrochloride]
Data returned: 0.352

Data request: # iterate: CCCSc1ccc2[nH]c(NC(=O)OC)nc2c1
Data returned: 3.52

Data request: # iterate: OC(c1cc(C(F)(F)F)nc2c(C(F)(F)F)cccc12)C1CCCCN1 (stereo not given) [Mefloquine hydrochloride]
Data returned: 1.37

----------
System: E13 (patient-derived glioblastoma stem cells of classical subtype)
Experimental Protocol: phenotypic distance (Euclidean, principal components) from DMSO controls (arbitrary units); higher = stronger morphological change
Setup Conditions: 1000 nM; exposure time: 72 h
Counter-ions that a name gives are not always drawn.
Parameter: phenotypic distance. Scope: all listed entries.
// keep it numeric: no unit symbol after the value

Data request: Which phenotypic distance value is on record for COc1cc2c(cc1-c1c(C)noc1C)ncc1[nH]c(=O)n([C@H](C)c3ccccn3)c12 ?
Data returned: 3.74

Data request: # iterate: O=C(CCBr)N1CCN(C(=O)CCBr)CC1
Data returned: 0.638

Data request: # iterate: C=C[C@H]1CN2CC[C@H]1C[C@@H]2[C@@H](O)c1ccnc2ccc(OC)cc12 [Quinidine hydrochloride monohydrate]
Data returned: 0.415

Data request: # iterate: COc1c(N2CCNC(C)C2)c(F)cc2c(=O)c(C(=O)O)cn(C3CC3)c12 (stereo not given)
Data returned: 0.825

More entries:
Data request: Which phenotypic distance value is on record for C=C(C)[C@H]1Cc2c(ccc3c2O[C@@H]2COc4cc(OC)c(OC)cc4[C@@H]2C3=O)O1 ?
Data returned: 3.77

Data request: # iterate: CN(C(=O)CN(CCO)CC(=O)N(C)C(C)(C)Cc1ccccc1)C(C)(C)Cc1ccccc1
Data returned: 3.59

Data request: # iterate: Cc1ccc(/C=N/NC(=O)c2n[nH]c3c2CCCC3)cc1
Data returned: 7.86

Data request: # iterate: Cc1ccc(S(=O)(=O)/C=C/C#N)cc1
Data returned: 2.5

Data request: # iterate: CCn1cc(C(=O)O)c(=O)c2cc(F)c(N3CCNCC3)nc21
Data returned: 0.745

Data request: # iterate: CC(C)(C)C1CCN(C(=O)n2ncc(C(O)(c3ccccc3)c3ccccc3)n2)CC1
Data returned: 0.699

----------
Tested on: FT3469
Experimental Protocol: phenotypic distance (Euclidean, principal components) from DMSO controls (arbitrary units); higher = stronger morphological change
Setup Conditions: 1000 nM; exposure time: 72 h
Where a name gives a salt, the structure may show the parent alone.
Property Measured: phenotypic distance

Data request: Which phenotypic distance value is on record for CC1=C(/C=C/C(C)=C/C=C/C(C)=C/C(=O)Nc2ccc(O)cc2)C(C)(C)CCC1 [Retinoic acid p-hydroxyanilide] ?
Data returned: 2.61

More entries:
Data request: Which phenotypic distance value is on record for NCCCP(=O)(O)O ?
Data returned: 0.784

Data request: # iterate: O=[N+]([O-])c1ccc2c(c1)S(=O)(=O)C=C2
Data returned: 8.18

Data request: # iterate: C[C@H]1Oc2cc(cnc2N)-c2c(nn(C)c2C#N)CN(C)C(=O)c2ccc(F)cc21
Data returned: 0.901

Data request: # iterate: CCC1=C[C@@H]2CN(C1)Cc1c([nH]c3ccccc13)[C@@](C(=O)OC)(c1cc3c(cc1OC)N(C)[C@H]1[C@@](O)(C(=O)OC)[C@H](OC(C)=O)[C@]4(CC)C=CCN5CC[C@]31[C@@H]54)C2 [Vinorelbine Tartrate]
Data returned: 4.88

Data request: # iterate: C[C@@H]1C[C@@H]([C@H](O)CC2CC(=O)NC(=O)C2)C(=O)[C@@H](C)C1 [Cycloheximide]
Data returned: 1.49

Data request: # iterate: CC(=O)OC[C@H]1O[C@@H]([S-])[C@H](OC(C)=O)[C@@H](OC(C)=O)[C@@H]1OC(C)=O.CCP(CC)CC.[Au+]
Data returned: 1.28

----------
Tested on: E21 (patient-derived glioblastoma stem cells of mesenchymal subtype)
Experimental Protocol: phenotypic distance (Euclidean, principal components) from DMSO controls (arbitrary units); higher = stronger morphological change
Setup Conditions: 333.3 nM; exposure time: 72 h
Parameter: phenotypic distance. Scope: all listed entries.

Data request: Which phenotypic distance value is on record for CC1CNc2c(cccc2S(=O)(=O)N[C@@H](CCCNC(=N)N)C(=O)N2CC[C@@H](C)C[C@@H]2C(=O)O)C1 (some centres not stated) ?
Data returned: 1.26

----------
Tested on: E21
Experimental Protocol: surviving fraction (nuclei count normalised to DMSO); higher = more cells surviving (less toxic)
Setup Conditions: 3000 nM; exposure time: 72 h
Where a name gives a salt, the structure may show the parent alone.
Property Measured: surviving fraction
// keep it numeric: no unit symbol after the value

Completed entries (count: 4):
Data request: Which surviving fraction value is on record for COc1cc2c(c(OC)c1OC)-c1ccc(OC)c(=O)cc1[C@@H](NC(C)=O)CC2 ?
Data returned: 0.139

Data request: # iterate: COc1cc2ncnc(Nc3cccc(Br)c3)c2cc1OC
Data returned: 0.346

Data request: # iterate: Nc1ccn([C@@H]2O[C@H](CO)[C@@H](O)[C@@H]2O)c(=O)n1
Data returned: 0.154

Data request: # iterate: Clc1ccc(C(Cn2ccnc2)OCc2ccsc2Cl)c(Cl)c1 (stereo unspecified)
Data returned: 0.887

More entries:
Data request: Which surviving fraction value is on record for CCOC(=O)OC(C)OC1=C(C(=O)Nc2ccccn2)N(C)S(=O)(=O)c2ccccc21 (stereo unspecified) ?
Data returned: 1.01

Data request: # iterate: Cc1cccn2c(=O)c(-c3nnn[nH]3)cnc12
Data returned: 1.1

Data request: # iterate: COc1ccc2[nH]c([S+]([O-])Cc3ncc(C)c(OC)c3C)nc2c1 (stereo unspecified)
Data returned: 0.943

Data request: # iterate: CC(C)(C)C1CCN(C(=O)n2ncc(C(O)(c3ccccc3)c3ccccc3)n2)CC1
Data returned: 0.889

Data request: # iterate: CCCCC1C(=O)N(c2ccccc2)N(c2ccc(O)cc2)C1=O (stereo unspecified)
Data returned: 1.1

Data request: # iterate: CC[C@@H]1C(=O)N(C)c2cnc(Nc3ccc(C(=O)N[C@H]4CC[C@H](N5CCN(CC6CC6)CC5)CC4)cc3OC)nc2N1C(C)C
Data returned: 0.274

Data request: # iterate: NC1CCN(c2nc3c(cc2F)c(=O)c(C(=O)O)cn3-c2ccc(F)cc2F)C1 (stereo unspecified) [Tosufloxacin hydrochloride]
Data returned: 0.906

Data request: # iterate: Cc1[nH]nc(C(F)(F)F)c1Cc1sc2c(c1C(=O)N1C[C@](C)(O)CO1)c(=O)n(C)c(=O)n2C(C)C
Data returned: 1.03

Data request: # iterate: Nc1ncnc2c1c(-c1ccc(Oc3ccccc3)cc1)cn2C1CCCC1
Data returned: 0.85

Data request: # iterate: CC(=O)O[C@H]1C[C@H](O[C@H]2[C@@H](O)C[C@H](O[C@H]3[C@@H](O)C[C@H](O[C@H]4CC[C@@]5(C)[C@H](CC[C@@H]6[C@@H]5C[C@@H](O)[C@]5(C)[C@@H](C7=CC(=O)OC7)CC[C@]65O)C4)O[C@@H]3C)O[C@@H]2C)O[C@H](C)[C@H]1O[C@@H]1O[C@H](CO)[C@@H](O)[C@H](O)[C@H]1O [Lanatoside C]
Data returned: 0.241

Data request: # iterate: CCN(CC)Cc1ccc(C(=O)N(CCc2ccccc2OC)[C@@H]2CCNC2)cc1
Data returned: 0.663

Data request: # iterate: N=C(N)c1ccc(-c2ccc(-c3ccc(C(=N)N)cc3)o2)cc1 [Furamidine dihydrochloride]
Data returned: 0.975

Measured values drawn from the supplement of paper PMC13207355 for this set.
